Test: Cytotoxicity against Vero-76 cells (crystal violet staining)
Assay type: cell-based, Cercopithecus Aethiops
Conditions: Cercopithecus aethiops (African green monkey)
experimental.readout: CC50 (µM)
One number for each entry, in µM.

Worked cases, CC50 given:
C(=C1c2ccccc2-c2ccccc21)[C@@H]1CCCN2CCCC[C@H]12
83.4
Nc1ccc(NCCC2CCCN3CCCCC23)c2c(=O)c3ccccc3sc12 (stereo not drawn)
61.4
Cc1ccc(NCCC2CCCN3CCCCC23)c2c(=O)c3ccccc3sc12 (stereo not drawn)
22.9
Cc1ccc(NC[C@@H]2CCCN3CCCC[C@H]23)c2c(=O)c3ccccc3sc12
23.5
C[N+]12CCCC[C@@H]1[C@H](C=C1c3ccccc3CCc3ccccc31)CCC2.[I-] (stereo partly drawn)
89.9

With those in mind, consider the next compound.
In plain terms, C[N+]12CCCC[C@@H]1[C@H](C=C1c3ccccc3-c3ccccc31)CCC2 (stereo partly drawn) has a documented CC50 of 82.7
